B1: Intersectin-1, residues 909 to 971; numbered along this chain, Q15811 (parent)
chain: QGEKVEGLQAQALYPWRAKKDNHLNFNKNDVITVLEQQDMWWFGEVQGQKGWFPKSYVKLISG

Variants of: B1
Assay: abundance fitness (aPCA) (normalised: wild type 0, dead -1); higher = more abundant; growth selection in yeast, the domain comes from the species named
Settings: Homo sapiens
Binary classification by abundance fitness, with -0.1 as an inclusive lower bound for 1.0; all other cases are 0.0.

Q: Can Q49K be said to have abundance fitness at or above -0.1?
A: 0.0

Q: Please tell me: is the variant E3I at or over -0.1 in terms of abundance fitness?
A: 1.0

Q: Evaluate D39N : abundance fitness at minimum -0.1?
A: 0.0

Q: Evaluate N27R : abundance fitness at minimum -0.1?
A: 1.0

Q: Quick check, abundance fitness >= -0.1? W42A
A: 0.0

Q: Does the variant D39K have recorded abundance fitness that is -0.1 or more?
A: 0.0

Q: I'd appreciate it if you could say whether L13M has abundance fitness at least equal to -0.1.
A: 0.0

Q: Is reported abundance fitness greater than or equal to -0.1 here: R17V
A: 1.0

Q: Could you verify whether the entry K4P shows abundance fitness of no less than -0.1?
A: 0.0

Q: Please tell me: is the variant S56I at or over -0.1 in terms of abundance fitness?
A: 0.0
